Target: T1, Cynomolgus CXCR2 (cynomolgus, UniProt Q28519 3-353 (rhesus entry))
T1 construct: On transfected HEK293T or RBL-2H3 cells; native on cynomolgus neutrophils in the WBSC assay; also called cCXCR2; cynoCXCR2
T1 chain: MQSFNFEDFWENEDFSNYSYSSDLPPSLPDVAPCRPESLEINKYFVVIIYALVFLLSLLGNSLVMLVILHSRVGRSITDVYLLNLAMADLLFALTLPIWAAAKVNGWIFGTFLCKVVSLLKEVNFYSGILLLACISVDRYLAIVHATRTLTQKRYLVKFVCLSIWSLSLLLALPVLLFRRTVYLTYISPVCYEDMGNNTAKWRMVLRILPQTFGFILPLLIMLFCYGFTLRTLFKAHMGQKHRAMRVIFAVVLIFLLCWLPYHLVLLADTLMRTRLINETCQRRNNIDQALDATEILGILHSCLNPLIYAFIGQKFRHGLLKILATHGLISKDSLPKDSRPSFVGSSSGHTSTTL
Experiment: FACS competition vs 3 nM FMAT-Blue Gro-α
pIC50: −log10 of the molar value.
Endpoint: pIC50

• CXCR20032 (bispecific antibody, Biparatopic: two VHH joined by a GlySer linker; also called 2B2-35GS-163D2; not shown: C-terminal c-myc tag and His6 tag coded by pAX100) EVQLVESGGELVQPGGSLRLSCAASGSILTINAMGWYRQAPGKQRELVVRRTRGGSTTYQDSVKGRFTISADIAKKTMYLQMNSLKPEDTAVYYCMLDDRGGVYWGQGTQVTVSSGGGGSGGGGSGGGGSGGGGSGGGGSGGGGSGGGGSEVQLVESGGGLVQAGGSLRLSCAASGRTFSDYAMGWFRQAPGKEREFVAAITWNGGRVFYTASVKGRFTISRDNAKNTMYLQMNSLKPEDTAVYYCAADKDRRTDYLGHPVAYWGQGTQVTVSS = 8.72
